Where these numbers come from: patent US20240417403A1

Test: TGA and DSC/mDSC thermal analysis (characterization of forms)
Assay type: physicochemical
Settings: crystalline salts; peak
reported endpoint: DSC endotherm (° C., peak) (°C)

molecule="COc1ccc2ncnc(Nc3ccc(Oc4cc5ncnn5cn4)c(C)c3)c2c1O[C@@H]1CCN(C)CC1(F)F [Mesylate Type A]" reported_endpoint="DSC endotherm (° C., peak)" measurement=65.1

[1] COc1ccc2ncnc(Nc3ccc(Oc4cc5ncnn5cn4)c(C)c3)c2c1O[C@@H]1CCN(C)CC1(F)F [Adipate Type A]
[2] COc1ccc2ncnc(Nc3ccc(Oc4cc5ncnn5cn4)c(C)c3)c2c1O[C@@H]1CCN(C)CC1(F)F [Mesylate Type B]
[3] COc1ccc2ncnc(Nc3ccc(Oc4cc5ncnn5cn4)c(C)c3)c2c1O[C@@H]1CCN(C)CC1(F)F [Fumarate Type A]
// sort entries: DSC endotherm (° C., peak), high to low Output spec: labels arranged per the requested ranking.
3, 1, 2
(3: 167.6 °C, 1: 106.7 °C, 2: 63.4 °C)

====

Test: TGA and DSC/mDSC thermal analysis (characterization of forms)
Type: physicochemical
Settings: crystalline salts; 150° C.
reported endpoint: TGA weight loss (150° C., %)

Here's what some known entries look like.
molecule="COc1ccc2ncnc(Nc3ccc(Oc4cc5ncnn5cn4)c(C)c3)c2c1O[C@@H]1CCN(C)CC1(F)F [Fumarate Type B]" result_unit=% measurement=4.9
molecule="COc1ccc2ncnc(Nc3ccc(Oc4cc5ncnn5cn4)c(C)c3)c2c1O[C@@H]1CCN(C)CC1(F)F [Fumarate Type A]" result_unit=% measurement=1.9

[1] COc1ccc2ncnc(Nc3ccc(Oc4cc5ncnn5cn4)c(C)c3)c2c1O[C@@H]1CCN(C)CC1(F)F [Fumarate Type E]
[2] COc1ccc2ncnc(Nc3ccc(Oc4cc5ncnn5cn4)c(C)c3)c2c1O[C@@H]1CCN(C)CC1(F)F [Fumarate Type C]
[3] COc1ccc2ncnc(Nc3ccc(Oc4cc5ncnn5cn4)c(C)c3)c2c1O[C@@H]1CCN(C)CC1(F)F [L-tartrate Type A]
Hey, quick one: sort these by TGA weight loss (150° C., %), low to high? API: response body holds the labels in the requested order.
2, 3, 1
(2: 1.5%, 3: 3.7%, 1: 9.4%)

====

Assay: Kinetic solubility in FaSSIF
Format: physicochemical
Settings: FaSSIF, 37 °C, thermodynamic from solid, timepoint 24 h
reported endpoint: solubility at 24 h (µg/mL)
Answer with a number only, understood to be in µg/mL.

// field: solubility at 24 h; key: COc1ccc2ncnc(Nc3ccc(Oc4cc5ncnn5cn4)c(C)c3)c2c1O[C@@H]1CCN(C)CC1(F)F [amorphous freebase] ; value = 260

====

Attribute: Solubility in H2O
Test: Equilibrium solubility in H2O
Assay type: physicochemical
Conditions: 37° C., stirred 24 hours

Solved cases (3 shown):
compound="COc1ccc2ncnc(Nc3ccc(Oc4cc5ncnn5cn4)c(C)c3)c2c1O[C@@H]1CCN(C)CC1(F)F [Fumarate Type A]" measurement="≥5000 µg/mL"
compound="COc1ccc2ncnc(Nc3ccc(Oc4cc5ncnn5cn4)c(C)c3)c2c1O[C@@H]1CCN(C)CC1(F)F [Fumarate Type B]" measurement="≥5200 µg/mL"
compound="COc1ccc2ncnc(Nc3ccc(Oc4cc5ncnn5cn4)c(C)c3)c2c1O[C@@H]1CCN(C)CC1(F)F [amorphous freebase]" measurement="160 µg/mL"

response.value for COc1ccc2ncnc(Nc3ccc(Oc4cc5ncnn5cn4)c(C)c3)c2c1O[C@@H]1CCN(C)CC1(F)F [Fumarate Type E] (field: Solubility in H2O) = ≥5000 µg/mL

====

Assay: Equilibrium solubility in pH 4.5 buffer
Format: physicochemical
Settings: 37° C., stirred 24 hours
reported endpoint: Solubility in pH 4.5 buffer (mg/mL)

These solved cases illustrate the format of a correct answer.
molecule="COc1ccc2ncnc(Nc3ccc(Oc4cc5ncnn5cn4)c(C)c3)c2c1O[C@@H]1CCN(C)CC1(F)F [Fumarate Type E]" reported_endpoint="Solubility in pH 4.5 buffer" measurement=1.3
molecule="COc1ccc2ncnc(Nc3ccc(Oc4cc5ncnn5cn4)c(C)c3)c2c1O[C@@H]1CCN(C)CC1(F)F [Freebase Type B]" reported_endpoint="Solubility in pH 4.5 buffer" measurement=0.3

[A] COc1ccc2ncnc(Nc3ccc(Oc4cc5ncnn5cn4)c(C)c3)c2c1O[C@@H]1CCN(C)CC1(F)F [amorphous freebase]
[B] COc1ccc2ncnc(Nc3ccc(Oc4cc5ncnn5cn4)c(C)c3)c2c1O[C@@H]1CCN(C)CC1(F)F [Fumarate Type B]
Among A and B , whose measured Solubility in pH 4.5 buffer is the smaller figure? Choose, then provide that item's label.
A

====

Collected TGA weight loss (%, temp.) values appear next to each entry.
Test: TGA and DSC/mDSC thermal analysis (characterization of forms)
Type: physicochemical
Conditions: fumarate forms; to 150° C.
Counter-ions that a name gives are not always drawn.

Before answering, review these 3 worked examples.
molecule="COc1ccc2ncnc(Nc3ccc(Oc4cc5ncnn5cn4)c(C)c3)c2c1O[C@@H]1CCN(C)CC1(F)F [Amorphous Fumarate]" measurement="3.6 (to 150° C.) %"
molecule="COc1ccc2ncnc(Nc3ccc(Oc4cc5ncnn5cn4)c(C)c3)c2c1O[C@@H]1CCN(C)CC1(F)F [Fumarate Type E]" measurement="9.4 (to 150° C.) %"
molecule="COc1ccc2ncnc(Nc3ccc(Oc4cc5ncnn5cn4)c(C)c3)c2c1O[C@@H]1CCN(C)CC1(F)F [Fumarate Type B]" measurement="4.9 (to 150° C.) %"

Next, consider the following molecule.
# TGA weight loss (%, temp.) of COc1ccc2ncnc(Nc3ccc(Oc4cc5ncnn5cn4)c(C)c3)c2c1O[C@@H]1CCN(C)CC1(F)F [Fumarate Type A] = 1.9 (to 150° C.) %

====

Assay: TGA and DSC/mDSC thermal analysis (characterization of forms)
Format: physicochemical
Conditions: crystalline salts; 150° C.
reported endpoint: TGA weight loss (150° C., %)

The cases that follow already have their TGA weight loss (150° C., %) on record.
compound="COc1ccc2ncnc(Nc3ccc(Oc4cc5ncnn5cn4)c(C)c3)c2c1O[C@@H]1CCN(C)CC1(F)F [Phosphate Type A]" reported_endpoint="TGA weight loss (150° C., %)" measurement=9.5
compound="COc1ccc2ncnc(Nc3ccc(Oc4cc5ncnn5cn4)c(C)c3)c2c1O[C@@H]1CCN(C)CC1(F)F [Mesylate Type A]" reported_endpoint="TGA weight loss (150° C., %)" measurement=10.2

[a] COc1ccc2ncnc(Nc3ccc(Oc4cc5ncnn5cn4)c(C)c3)c2c1O[C@@H]1CCN(C)CC1(F)F [Mesylate Type B]
[b] COc1ccc2ncnc(Nc3ccc(Oc4cc5ncnn5cn4)c(C)c3)c2c1O[C@@H]1CCN(C)CC1(F)F [Adipate Type A]
Please compare: a and b . Report which one has the smaller TGA weight loss (150° C., %) value. Which one? Tell me its label.
b
